The measured values listed here are drawn from patent US10035790B2.

# Measured target: ligand binding domain of human RORγ (A262-S507) (Homo sapiens)
# Construct: made in house; host or cells: E. coli
# Sequence (P51449 262-507): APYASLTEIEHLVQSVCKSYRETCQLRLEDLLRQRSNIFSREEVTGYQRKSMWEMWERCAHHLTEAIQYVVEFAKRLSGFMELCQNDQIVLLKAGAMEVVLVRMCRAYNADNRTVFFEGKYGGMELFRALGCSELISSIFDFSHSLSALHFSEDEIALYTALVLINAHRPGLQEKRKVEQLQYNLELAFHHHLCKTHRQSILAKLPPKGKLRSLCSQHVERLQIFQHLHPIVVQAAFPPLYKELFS
# Assay explanation: General RORγ SPA binding assay (competition with [3H]25-hydroxycholesterol)
# Recorded conditions: RORγ SPA binding assay, inhibition of [3H]25-hydroxycholesterol binding; read-out: IC50
Attribute measured: IC50
Just so you know, I need the unit written after the number.

Worked examples, 3 molecules total:
[
  {
    "Molecule": "Cc1nc(C)c(-c2nnc(-c3ccnc(C(F)(F)F)n3)o2)c(C2CCN(C(=S)Nc3c(F)cccc3F)CC2)n1",
    "IC50": "123 nM"
  },
  {
    "Molecule": "O=C(NCc1cccc(Cl)c1)c1cnc(C2CC2)nc1C1CCN(C(=O)Cc2c(F)cccc2F)CC1",
    "IC50": "6 nM"
  },
  {
    "Molecule": "Cc1nc(C)c(-c2nnc(-c3ccnc(C(F)(F)F)n3)o2)c(C2CCN(C(=O)C(F)(F)c3ccccc3F)CC2)n1",
    "IC50": "3.2 nM"
  }
]

Prompt line: Entry Cc1ncc(C(O)(CN)COc2cccc(C(F)(F)F)n2)c(C2CCN(C(=O)Nc3c(F)cccc3F)CC2)n1 (centres unmarked) has what IC50?
Response line: 12.8 nM

Prompt line: Entry CC(=O)NCCNCC(O)(COc1cccc(C(F)(F)F)n1)c1cnc(C)nc1C1CCN(C(=O)Nc2c(F)cccc2F)CC1 (centres unmarked) has what IC50?
Response line: 57.9 nM

Prompt line: Entry Cc1ncc(C(=O)NCc2ccc(Cl)c(Cl)c2)c(C2CCN(C(=O)Cc3c(F)cccc3F)CC2)n1 has what IC50?
Response line: 6.8 nM

Prompt line: Entry C/C(=N\Oc1cc(Cl)nc(C(F)(F)F)c1)c1cnc(N)nc1C1CCN(C(=O)Nc2c(F)cccc2F)CC1 has what IC50?
Response line: 5.8 nM
